# credit: PubChem BioAssay

# METHOD_DESCRIPTION: membrane potential modulation in parental HEK293, confirmation, counter-screen for TRPC6 inhibitor project, cell-based (AID 2780);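 on membrane potential signal change: plate controls were buffer EC0 wells for no effect and acetylcholine ECmax wells for full effect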
# CONDITION_DETAILS: parental HEK293 membrane potential dye fluorescence; at 10 µM
Some of the results follow. The source made the active and inactive calls.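 How the source made its calls: active means membrane potential signal shifting up or down by more than 3 SD of buffer-only wells, on both duplicate plates; inactive means the rest.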
MEASUREMENT_TYPE: membrane potential signal change

COMPOUND | membrane potential signal change
CN(C)c1ccc(C2N(C)C(=O)c3ccccc3N2C)cc1 (configuration not stated) | inactive
COc1ccc(CC(=O)Nc2sc(Cc3ccccc3)c(C)c2C(N)=O)cc1 | inactive
CCN(CC)CCn1c2ccc(Cl)cc2c2nc(C)sc21 | -267% (active)
CCOC(=O)N1CCC(NC(=O)CN2C(=O)COc3ccc(C(C)(C)C)cc32)CC1 | inactive
CC1CC(C)CN(C/C=C/c2ccccc2[N+](=O)[O-])C1 (configuration not stated) | 0.38% (active)
CCCc1cc(=S)n2c([nH]c3ccccc32)c1C#N | 22.1% (active)
CCOC(=O)N1CCN(C(=O)c2ccc3c(c2)N(Cc2ccc(C)cc2)CCS3)CC1 | inactive
CC(C)c1ccc(OCC(O)Cn2cnc3ccccc32)cc1 (configuration not stated) | inactive

Notebook: COc1ccccc1OCCNCC(O)COc1cccc2[nH]c3ccccc3c12 (configuration not stated) , membrane potential signal change read as inactive

Given item CCCCCOc1ccc(CSC2=NCCN2)cc1[N+](=O)[O-] , the value recorded as its membrane potential signal change is inactive

In plain terms, CCN(CC)c1ccc2cc(C(N)=O)/c(=N\NC(=O)c3ccncc3)oc2c1 has a documented membrane potential signal change of 1.95% (active)

* * *

# METHOD_DESCRIPTION: thallium flux activation in parental CHO cells, counter-screen for KCNQ1 potentiator project (AID 493006);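 on activation: fluorescence ratio of max minus min over baseline after K+ and Tl+ depolarization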
# CONDITION_DETAILS: parental CHO-K1 cells, FluxOR thallium flux, at 10 µM
Active and inactive are the calls of the source.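 Rule for the calls: active = duplicate-averaged activation above buffer control mean plus 5 SD of those controls; inactive = the rest.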
// one of active, inactive, no free text

Example entries and their recorded answers appear below.
COMPOUND | LABEL_VALUE
COC(=O)c1cc2c(ccc3ccccc32)oc1=O | inactive
Cn1c(SCc2ccc(C#N)cc2Cl)nc2ccccc21 | inactive
COC(=O)c1ccc(/C=C/c2ccc3cccc(OC)c3n2)cc1 | inactive

Req: Each compound tested received a call. Report the one for CC1(C)CC[C@]2(C(=O)O)CC[C@]3(C)C(=CCC4[C@@]5(C)CC[C@H](O)C(C)(C)C5[C@H](O)C[C@]43C)[C@@H]2C1 (stereo partly specified) .
Resp: active

Req: Field: outcome | Entry: S=c1sc2c(Cl)ncnc2n1-c1ccccc1
Resp: active

Req: Each compound tested received a call. Report the one for COc1cccc2c1C(=O)C=C(C)C2=O .
Resp: inactive

Req: Per the records of this test, what outcome belongs to CC1CC(=S)Nc2ccccc2N1C(=O)Nc1ccccc1 (stereo unspecified) ?
Resp: inactive

Req: I would be grateful if you could indicate the recorded call for Cn1c(=S)[nH]c2scc(-c3cccs3)c2c1=O .
Resp: active

Req: Record request — test call for COC(=O)c1ccc(CSc2ncnc3sc(C)c(C)c23)o1
Resp: active

Req: Hello, I am checking results. What call was entered for O=C(NCC1CCCO1)c1ccccc1OCc1ccc(F)cc1 (stereo unspecified) ?
Resp: inactive

Req: Write down the call the test reported for this compound. Item: CC(/C=N/NC(=O)c1cc(-c2cccs2)[nH]n1)=C\c1ccccc1
Resp: active

* * *

# TARGET_OR_SYSTEM: Potassium voltage-gated channel subfamily KQT member 2 (Rattus norvegicus)
# METHOD_DESCRIPTION: rat KCNQ2 channel potentiation, selectivity assay for KCNQ1 potentiator project, KCNQ2-CHO-K1 cells (AID 493009);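 further: assay conditions were tuned for KCNQ1 rather than KCNQ2 modulators; signal is max minus min fluorescence divided by baseline after thallium stimulus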
# CONDITION_DETAILS: FluxOR thallium flux fluorescence, at 10 µM; active compounds read high, scaled: buffer 0, activator control 100
Activity calls are given as the source filed them.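 The calls were made as follows: active = mean duplicate potentiation above the buffer control mean plus 5 SD of buffer wells; inactive = the rest.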
MEASUREMENT_TYPE: potentiation

Sample records with potentiation:
COMPOUND | potentiation
COCCn1c(=S)[nH]c2sc3c(c2c1=O)CCCC3 | 312% (active)
Fc1ccc2nc(Nc3nc4c(F)cc(F)cc4s3)sc2c1 | 210% (active)
O=[N+]([O-])c1cc(CN2CCCC2)ccc1Sc1ccc(Cl)cc1 | inactive
CCN(C(=O)c1cc2c(=O)[nH]c3ccc(C)cc3c2s1)c1ccccc1F | inactive
O=C(NC(=S)N1CCN(c2nc(-c3ccccc3)cs2)CC1)c1cncc(Br)c1 | 505% (active)

Query Cn1c(=O)n(CCc2ccccc2)c2ccccc21 yields potentiation of inactive

Reported potentiation for CC1CN(C(=O)c2ccc(NS(=O)(=O)c3ccc(C(C)(C)C)cc3)cc2)CC(C)O1 (configuration not stated) was inactive

The recorded potentiation for entry CCn1c(SC(C)C(=O)O)nc2sc3c(c2c1=O)CCC3 (configuration not stated) equals 230% (active)

Input C/C(=N\NC(=O)C(C)Sc1ccccc1)c1ccc([N+](=O)[O-])cc1 (configuration not stated) . Output potentiation: inactive

// OCCCCNCc1ccc(OCc2ccc(Cl)cc2)cc1 : potentiation value = 332% (active)

Form field potentiation, entry O=C(NC(=S)Nc1ccc(Cl)cn1)c1cccs1 : inactive

O=C(NN=C1c2ccccc2-c2ccccc21)c1ccccc1Br yielded potentiation of inactive

Lookup result for Oc1c(CN2CCN(c3ccccn3)CC2)cc(Cl)c2cccnc12 ; measured potentiation: 172% (active)

Value of potentiation reported for the compound O=C(O)CSc1cc(NS(=O)(=O)c2ccc(Br)cc2)c2ccccc2c1O is inactive

Quick note, potentiation for Cc1ccc(C)c(S(=O)(=O)NCC(=O)N2CCCC2)c1 landed at inactive

* * *

# TARGET_OR_SYSTEM: Short transient receptor potential channel 4 (Mus musculus) (UniProt Q9QUQ5)
# METHOD_DESCRIPTION: calcium flux activators in TRPC4/5HT1a cells, counter-screen for TRPC4 activator project, cell-based, second counter screen, HEK293 TRPC4/5HT1a, Fluo-4 (AID 434977)
# CONDITION_DETAILS: Fluo-4 calcium flux, at 10 µM
Active and inactive are the calls of the source.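 The calls were made as follows: active = calcium signal rise above buffer-control mean plus 5 SD in both duplicates, and also a hit in the primary screen; inactive = the rest.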
Give your call using only these classes: active, inactive

MOLECULE | TARGET_OR_SYSTEM | LABEL_VALUE
Cc1ccccc1Nc1nc(NCc2ccco2)c2ccccc2n1 | Short transient receptor potential channel 4 (Mus musculus) (UniProt Q9QUQ5) | inactive
CCn1c(SCC(=O)c2cc(C)n(CC3CCCO3)c2C)nc2ccccc21 (stereo not drawn) | Short transient receptor potential channel 4 (Mus musculus) (UniProt Q9QUQ5) | inactive
Cc1ccc(C(=O)NNC(=S)NC(=O)c2ccccc2)cc1 | Short transient receptor potential channel 4 (Mus musculus) (UniProt Q9QUQ5) | active
CCCCc1cc(O)c(CCCC)c(O)c1 | Short transient receptor potential channel 4 (Mus musculus) (UniProt Q9QUQ5) | active
CCCCC(c1nnnn1CC1CCCO1)N1CCN(Cc2ccccc2)CC1 (stereo not drawn) | Short transient receptor potential channel 4 (Mus musculus) (UniProt Q9QUQ5) | inactive
O=C(CCc1ccccc1)NNC(=S)NC(=O)c1ccc(Cl)cc1 | Short transient receptor potential channel 4 (Mus musculus) (UniProt Q9QUQ5) | active

Req: Assay outcome for Cc1ccccc1N(CC(=O)N/N=C/c1ccc(F)cc1)C(=O)c1ccccc1 : what was it?
Resp: inactive

Req: Could you please tell me the result logged for COc1ccc(-n2cc(CNCCc3ncc(C)[nH]3)c(-c3ccccc3Cl)n2)cc1 in this assay?
Resp: inactive

Req: So what was the verdict on CCOC(=O)c1oc2ccc(OC)cc2c1NC(=O)CN1CCN(C)CC1 in this test?
Resp: active

Req: What is the recorded call for this molecule in the test? CN(C)C(CNC(=O)c1ccc2ccccc2n1)c1ccccc1 (stereo not drawn)
Resp: inactive

Req: I would be grateful if you could indicate the recorded call for Cc1ccc(C)c(CN2CCC(CNC(=O)CCc3nnc4ccc(N5CCCCC5)nn34)CC2)c1 .
Resp: inactive

Req: Status in this test for CC1CC(C)(C)N(C(=O)CN2C(=O)c3ccccc3C2=O)c2ccccc21 (stereo not drawn) ?
Resp: active

Req: Could you please tell me the result logged for O=C(c1cccs1)N1CCN(c2ncc(Br)cn2)CC1 in this assay?
Resp: active

* * *

# TARGET_OR_SYSTEM: Potassium voltage-gated channel subfamily KQT member 1 (Homo sapiens) (UniProt P51787)
# Sequence (P51787 whole entry, looked up): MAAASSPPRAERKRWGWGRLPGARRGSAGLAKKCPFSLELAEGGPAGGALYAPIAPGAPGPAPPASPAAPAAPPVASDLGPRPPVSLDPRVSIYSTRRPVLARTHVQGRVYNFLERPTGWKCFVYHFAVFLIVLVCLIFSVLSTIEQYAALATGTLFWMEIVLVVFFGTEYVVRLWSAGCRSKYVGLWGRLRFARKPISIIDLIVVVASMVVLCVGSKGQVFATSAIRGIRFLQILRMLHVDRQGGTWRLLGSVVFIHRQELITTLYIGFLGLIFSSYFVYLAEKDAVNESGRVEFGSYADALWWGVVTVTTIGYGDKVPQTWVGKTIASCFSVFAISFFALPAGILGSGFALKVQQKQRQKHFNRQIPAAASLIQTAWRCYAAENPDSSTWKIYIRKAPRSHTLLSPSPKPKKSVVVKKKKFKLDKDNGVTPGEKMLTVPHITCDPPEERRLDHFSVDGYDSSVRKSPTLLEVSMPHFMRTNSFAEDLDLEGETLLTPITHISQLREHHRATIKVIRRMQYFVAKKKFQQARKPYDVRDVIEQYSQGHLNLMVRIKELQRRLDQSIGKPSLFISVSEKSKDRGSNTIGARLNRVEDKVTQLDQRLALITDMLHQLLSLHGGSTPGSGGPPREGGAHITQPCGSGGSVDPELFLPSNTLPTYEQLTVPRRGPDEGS
# METHOD_DESCRIPTION: KCNQ1 potassium channel potentiators, confirmation, FluxOR thallium flux, CHO cells, duplicates (AID 493007);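 on outcome: cells depolarized by a potassium plus thallium sulfate stimulus after compound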
# CONDITION_DETAILS: KCNQ1 cell line, FluxOR thallium flux fluorescence, at 10 µM, % of reference activator effect, buffer zero
Active and inactive are the calls of the source.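 Rule for the calls: active = potentiation averaged over duplicate wells exceeding buffer-only control mean by more than 3 SD; inactive = the rest.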
Choose one outcome from this list and give only that: active, inactive

MOLECULE | LABEL_VALUE
CNC(=S)N/N=C/c1cc(Br)cc(Br)c1O | inactive
COC(=O)c1cn(NC(=O)Cc2ccc(Cl)c(Cl)c2)c(=O)c2ccccc12 | inactive
COc1ccc(CCN(C)C(=O)CSc2nnc(-c3ccco3)o2)cc1OC | inactive

Req: Can you look up the reported call for Cn1c(N/N=C/c2cccs2)cc(=O)n(C)c1=O for me?
Resp: inactive

Req: Which outcome did this test record for the molecule CCC(C)NCC(=O)Nc1sc2c(c1C(N)=O)CCC2 (stereo unspecified) ?
Resp: inactive

Req: // outcome(item) with item = COc1cc(OC)cc(C(=O)NC(=S)N2CCCCCC2)c1
Resp: active

Req: Any idea what this test logged for CCCC(=O)N(Cc1cccnc1)c1nc2c(OC)ccc(Cl)c2s1 ?
Resp: active

Req: Could you check what this test reported for O=C(CSc1nnc(SCc2cccc3ccccc23)s1)c1ccc2c(c1)OCO2 ?
Resp: inactive
